- studySystem: NAMPT (Homo sapiens (Human), UniProt P43490)
- Sequence (P43490 whole entry): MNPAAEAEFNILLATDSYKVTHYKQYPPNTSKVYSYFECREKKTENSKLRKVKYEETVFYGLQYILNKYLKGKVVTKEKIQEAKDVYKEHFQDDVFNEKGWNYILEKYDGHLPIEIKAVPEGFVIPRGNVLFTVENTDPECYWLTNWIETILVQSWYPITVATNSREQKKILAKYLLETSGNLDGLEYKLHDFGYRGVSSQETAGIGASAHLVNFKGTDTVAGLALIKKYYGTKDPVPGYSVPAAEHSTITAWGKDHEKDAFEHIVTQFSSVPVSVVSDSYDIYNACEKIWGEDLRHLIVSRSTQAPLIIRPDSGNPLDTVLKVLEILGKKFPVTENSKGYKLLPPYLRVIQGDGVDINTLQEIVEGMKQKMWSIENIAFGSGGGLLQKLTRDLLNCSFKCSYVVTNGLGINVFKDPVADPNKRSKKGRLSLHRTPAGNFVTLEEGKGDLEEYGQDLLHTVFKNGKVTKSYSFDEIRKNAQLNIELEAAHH
- assayExplanation: Biochemical Inhibition Assay (NAMPT enzymatic reaction, NMN quantified by mass spectrometry)
- conditionInfo: recombinant His-tagged NAMPT, 33 nM; 1 μM NAM; read-out: Biochem IC50
- Protocol: Recombinant His-tagged NAMPT was produced in E. coli cells, purified over a Ni column, and further purified over a size-exclusion column by XTAL Biostructures. The NAMPT enzymatic reactions were carried out in Buffer A (50 mM Hepes pH 7.5, 50 mM NaCl, 5 mM MgCl2, and 1 mM THP) in 96-well V-bottom plates. […] Background and signal strength was determined by addition (or non-addition) of a serial dilution of NMN to a pre-quenched enzyme and cofactor mix. […] IC50s are Determined Using Excel and this Formula. […]
pIC50: −log10 of the molar value.
Label rule, in plain words: pIC50 of 8 and up is T, under 8 is F.

Solved cases (5 shown):
compound: COc1cc(C(F)(F)F)ccc1S(=O)(=O)c1ccc(NC(=O)/C=C/c2cccnc2)cc1
classAssignment: F

compound: Cc1cncc(S(=O)(=O)c2ccc(NC(=O)/C=C/c3cccnc3)cc2)c1
classAssignment: F

compound: O=C(/C=C/c1cccnc1)Nc1ccc(S(=O)(=O)c2cccc3[nH]ccc23)cc1
classAssignment: T

compound: O=C(/C=C/c1cccnc1)Nc1ccc(S(=O)(=O)c2ccc(F)cc2)cc1
classAssignment: T

compound: O=C(/C=C/c1cccnc1)Nc1ccc(S(=O)(=O)c2ccccc2)cc1
classAssignment: T

Kindly review the next molecule as well.
QUERY: Confirm if pIC50 reported for the molecule O=C(/C=C/c1cccnc1)Nc1ccc(S(=O)(=O)c2cc(F)cc(Cl)c2)cc1 is 8 or above.
RESULT: F

###

- System: A2780 cells
- assayExplanation: In-Vitro Cell Proliferation Assay (SRB, 72 hours)
- Type: cell-based
- conditionInfo: A2780 cells, 72 hours, sulforhodamine B; read-out: A2780 IC50
assayMetric: IC50 (nM)
Please respond with the number in nM and leave the unit unwritten.

QUERY: Given O=C(/C=C/c1cccnc1)Nc1ccc(S(=O)(=O)c2cc(Cl)cc(Cl)c2)cc1 [(2E)-N-{4-[(3,5-dichlorobenzene)sulfonyl]phenyl}-3-(pyridin-] , respond with its IC50.
RESULT: 186

###

- studySystem: NAMPT (Homo sapiens (Human), UniProt P43490)
- assayExplanation: Biochemical Inhibition Assay (NAMPT enzymatic reaction, NMN quantified by mass spectrometry)
- conditionInfo: recombinant His-tagged NAMPT, 33 nM; 1 μM NAM; read-out: Biochem IC50
The label is t for IC50 below 0.01 µM and f for IC50 equal to or exceeding 0.01 µM.

Solved cases (5 shown):
compound: O=C(/C=C/c1cccnc1)Nc1ccc(S(=O)(=O)c2cc(OC(F)(F)F)ccc2Cl)cc1
classAssignment: f
--
compound: CS(=O)(=O)c1cccc(S(=O)(=O)c2ccc(NC(=O)/C=C/c3cccnc3)cc2)c1
classAssignment: f
--
compound: COc1ccc(C(F)(F)F)cc1S(=O)(=O)c1ccc(NC(=O)/C=C/c2cccnc2)cc1
classAssignment: f
--
compound: CCOc1ccc(S(=O)(=O)c2ccc(NC(=O)/C=C/c3cccnc3)cc2)cc1F
classAssignment: f
--
compound: COc1ccc(Cl)cc1S(=O)(=O)c1ccc(NC(=O)/C=C/c2cccnc2)cc1
classAssignment: t

QUERY: Quick check: IC50 of Cc1ccc(F)cc1S(=O)(=O)c1ccc(NC(=O)/C=C/c2cccnc2)cc1 under 0.01 µM?
RESULT: t

QUERY: Quick check: IC50 of COc1ccc(S(=O)(=O)c2ccc(NC(=O)/C=C/c3cccnc3)cc2)cc1Cl under 0.01 µM?
RESULT: t

QUERY: Quick check: IC50 of CC(C)Oc1ccc(S(=O)(=O)c2ccc(NC(=O)/C=C/c3cccnc3)cc2)cc1 under 0.01 µM?
RESULT: t

QUERY: Quick check: IC50 of CCCOc1ccc(S(=O)(=O)c2ccc(NC(=O)/C=C/c3cccnc3)cc2)cc1F under 0.01 µM?
RESULT: f

QUERY: Quick check: IC50 of Cc1cc(C(F)(F)F)ccc1S(=O)(=O)c1ccc(NC(=O)/C=C/c2cccnc2)cc1 under 0.01 µM?
RESULT: f

QUERY: Quick check: IC50 of Cc1ccccc1S(=O)(=O)c1ccc(NC(=O)/C=C/c2cccnc2)cc1 under 0.01 µM?
RESULT: f
